target.system: T1, recombinant monkey TfR (r monkey TfR: Sino Biological Inc.) (cynomolgus monkey (Macaca fascicularis), UniProt Q5RDH6 89-760 (Pongo abelii entry))
T1 construct: Bought product; also called r monkey TfR-ECD (Histag); cynomolgus monkey TfR; not shown: histidine tag attached to the N-terminus
T1 chain: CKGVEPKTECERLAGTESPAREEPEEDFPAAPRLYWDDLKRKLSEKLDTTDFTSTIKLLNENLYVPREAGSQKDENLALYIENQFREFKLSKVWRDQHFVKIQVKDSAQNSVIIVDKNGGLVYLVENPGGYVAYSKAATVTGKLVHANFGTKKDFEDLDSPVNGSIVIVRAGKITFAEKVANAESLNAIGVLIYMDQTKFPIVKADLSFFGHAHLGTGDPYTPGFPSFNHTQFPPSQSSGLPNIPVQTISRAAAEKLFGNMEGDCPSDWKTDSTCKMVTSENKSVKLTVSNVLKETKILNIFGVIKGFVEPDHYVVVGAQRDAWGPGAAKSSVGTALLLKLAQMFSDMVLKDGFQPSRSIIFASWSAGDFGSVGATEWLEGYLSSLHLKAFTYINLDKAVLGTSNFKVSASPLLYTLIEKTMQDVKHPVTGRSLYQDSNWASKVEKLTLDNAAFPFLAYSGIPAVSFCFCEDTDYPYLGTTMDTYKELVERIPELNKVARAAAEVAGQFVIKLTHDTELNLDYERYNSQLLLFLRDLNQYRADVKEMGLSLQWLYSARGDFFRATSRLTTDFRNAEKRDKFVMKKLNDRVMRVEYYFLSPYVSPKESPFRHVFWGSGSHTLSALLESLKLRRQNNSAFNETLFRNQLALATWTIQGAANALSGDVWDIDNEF
protocol.text: BLI (Octet RED96), His-tagged TfR ECD loaded on Ni-NTA sensor, antibody as analyte
Recorded kon by entry
Numeric answer only, unit M⁻¹ s⁻¹ assumed.

Use the examples below as a reference point.
{"columns": ["binder", "recorded.number"],
 "data": [
  ["anti-hTfR antibody No. 11 (antibody, V domains shown, Mouse hybridoma antibody purified on Protein G; also called mouse anti-hTfR antibody No. 11; product of Clone 11 line) VH: EVQLQESGAELVRPGSSVKISCKASGYAFSIYWINWLKQRPGQGLEWIGQIYPGNGDTNYNGKFKGKATLTADKSSNTVYMRLSSLTSEDSAVYFCGRWGDDYAMDFWGQGTSVTVSS VL: DIVLTQSPATLSVTPGDRVSLSCRASQSIRNYLHWYQQKSHESPRLLIKYASQSISGIPSRFSGSGSGTDFTLSINSVETEDFGMYFCQQTNSWPYTFGGGTKLEIK", 124000],
  ["anti-hTfR antibody No. 4 (antibody, V domains shown, Mouse hybridoma antibody purified on Protein G; also called mouse anti-hTfR antibody No. 4; product of Clone 4 line) VH: EVQLQESGAELVRPGTSVRVFCKASGYAFTNYLIEWVKQRPGQGLEWIGLINPGSGGIIYNEKFTDRATLTADKSSSTAYMQLSSLTSDDSAVYFCARSNYYGTTYWHFDVWGAGTTVTVSS VL: DIVLTQTPAIMSASPGEKVTMTCSASSNVNYMHWYQQKSSTSPKLWIYDTSKLASGVPGRFSGSGSGNSYSLTISSMEAEDVATYYCFQGNGNPYTFGGGTKLEIK", 754000]
]}

**Q:** Give a short answer stating reported kon for anti-hTfR antibody No. 5 (antibody, V domains shown, Mouse hybridoma antibody purified on Protein G; also called mouse anti-hTfR antibody No. 5; product of Clone 5 line) VH: EVQLQESGPELVKPGASVKMSCKASGYTFTNFVIHWVKQRPGQGLEWIGFFNPHKNGAEYNEKFQVKATLTSDKSSTTAYMELNSLTSEDSAVYYCARSFYYYSMDYWGQGTSVTVSS VL: DIVMTQTPAIMSASPGEKVTMTCSASSSISSIHWYQQKPGTSPKRWIYDTSTLASGVPVRFSGSGSGTSYSLTISSMEAEDAATYYCHQRSSYPTFGGGTKLEIK .
**A:** 519000
